The following compounds are shown together with reported TGI values.
Test system: SNB-19 CNS
METHOD DESCRIPTION: NCI tumour cell line growth inhibition, 48 h

- COMPOUND: "CCC(C)(C)c1ccc(OCCCCNC(=O)c2ccc3ccccc3c2O)c(C(C)(C)CC)c1"
  MEASURE NAME: "TGI"
  MEASUREMENT: "> 100 µM"

Enquiry: Query for SNB-19 CNS: what TGI does the record show for `O=C(O)C(Cl)(Cl)Cl` ?
Return: > 100 µM

Enquiry: Query for SNB-19 CNS: what TGI does the record show for `S=c1[nH]c(=S)c2cc3ccccc3nc2[nH]1` ?
Return: > 100 µM

Enquiry: Query for SNB-19 CNS: what TGI does the record show for `CCCCCCCCCCCCCCCCNc1cccc2ccccc12` ?
Return: > 100 µM

Enquiry: Query for SNB-19 CNS: what TGI does the record show for COc1cc2c(cc1OC)C(C(c1ccccc1)c1ccccc1)N(C)CC2 (configuration not stated) ?
Return: > 100 µM

Enquiry: Query for SNB-19 CNS: what TGI does the record show for `On1c(-c2ccccc2)c(-c2ccccc2N2CCCC2)c2ccccc21` ?
Return: > 100 µM

###

Tested on: CAKI-1 renal
METHOD DESCRIPTION: NCI tumour cell line growth inhibition, 48 h
The following compounds are shown together with reported TGI values.

Some compounds with known TGI results, for comparison:
- COMPOUND: "Cc1c(N(C)C)ccc2c(=O)c3cccc(CC(=O)O)c3oc12"
  TARGET SYSTEM: "CAKI-1 renal"
  MEASUREMENT: "> 100 µM"
- COMPOUND: "S=c1c2cn[nH]c2nc2scc(-c3ccc(Cl)cc3)n12"
  TARGET SYSTEM: "CAKI-1 renal"
  MEASUREMENT: "24.6 µM"
- COMPOUND: "O=S(=O)(O)C(CO)c1ccccc1 (stereo unspecified) (tested in a mixture with another compound)"
  TARGET SYSTEM: "CAKI-1 renal"
  MEASUREMENT: "> 100 µM"
- COMPOUND: "C#CC1/C(=C\\C(=O)OC)CCCC1O (stereo unspecified)"
  TARGET SYSTEM: "CAKI-1 renal"
  MEASUREMENT: "> 100 µM"
- COMPOUND: "Cc1c2cc[n+](C)c(C)c2cc2c1[nH]c1ccccc12"
  TARGET SYSTEM: "CAKI-1 renal"
  MEASUREMENT: "> 91.9 µM"
- COMPOUND: "NC(N)=N/N=C/c1c(Cl)cccc1Cl"
  TARGET SYSTEM: "CAKI-1 renal"
  MEASUREMENT: "95.3 µM"
- COMPOUND: "S=c1[nH]c(=S)c2cc3ccccc3nc2[nH]1"
  TARGET SYSTEM: "CAKI-1 renal"
  MEASUREMENT: "> 100 µM"
- COMPOUND: "CCCCCCCCCCCCCCCC(=O)OCCOCCOCCOCc1ccccc1"
  TARGET SYSTEM: "CAKI-1 renal"
  MEASUREMENT: "> 100 µM"
- COMPOUND: "COc1ccc(N2C(=O)CC(=O)N(NC(=O)C(C)Oc3ccccc3C)C2=S)cc1 (stereo unspecified)"
  TARGET SYSTEM: "CAKI-1 renal"
  MEASUREMENT: "> 100 µM"
- COMPOUND: "O=C1NC2c3c(I)sc(I)c3C(O)C2O1 (stereo unspecified)"
  TARGET SYSTEM: "CAKI-1 renal"
  MEASUREMENT: "> 100 µM"

Enquiry: For the compound COC(C)(C)C1(O)CC[C@@H](C)CC1=O (stereo partly specified) , what TGI is on record?
Return: > 100 µM

Enquiry: For the compound C=CCC1(c2ccc(OC)cc2)C=CC(=O)CC1 (stereo unspecified) , what TGI is on record?
Return: > 100 µM

Enquiry: For the compound O=C(CC1C(=O)Nc2ccccc2S1=O)Nc1cc(Cl)ccc1Cl (stereo unspecified) , what TGI is on record?
Return: > 100 µM

Enquiry: For the compound `N[C@@H](Cc1ccccc1)C(=O)N1CCC[C@@H]1P(=O)(Oc1ccccc1)Oc1ccccc1` , what TGI is on record?
Return: > 100 µM

Enquiry: For the compound `CN1CCN(c2ccc(Nc3cc(-c4cccc(-n5ccc6cc(C7CC7)cc(F)c6c5=O)c4CO)cn(C)c3=O)nc2)CC1` , what TGI is on record?
Return: 10.8 µM
